- Study Target: Nurr1 LBD (wt) (Homo sapiens, UniProt P43354)
- Sequence (P43354 360-595 limits assumed): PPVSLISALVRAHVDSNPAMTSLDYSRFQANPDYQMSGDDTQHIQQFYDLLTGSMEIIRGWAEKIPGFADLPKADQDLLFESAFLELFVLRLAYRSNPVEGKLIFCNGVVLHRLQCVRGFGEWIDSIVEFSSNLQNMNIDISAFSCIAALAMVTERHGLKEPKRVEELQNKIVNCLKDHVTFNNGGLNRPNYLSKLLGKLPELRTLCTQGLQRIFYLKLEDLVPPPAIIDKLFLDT
Measured Endpoint: Kd (µM)

Smiles Representation: O=C(O)C1=C(C(=O)Nc2ccc(-c3ccccc3OCc3ccccc3)cc2F)CCC1
Units: µM
Observed Result: 0.11

====

- Study Target: Nurr1 LBD - NCOR1 (Homo sapiens, UniProt P43354)
- Sequence (P43354 364-598): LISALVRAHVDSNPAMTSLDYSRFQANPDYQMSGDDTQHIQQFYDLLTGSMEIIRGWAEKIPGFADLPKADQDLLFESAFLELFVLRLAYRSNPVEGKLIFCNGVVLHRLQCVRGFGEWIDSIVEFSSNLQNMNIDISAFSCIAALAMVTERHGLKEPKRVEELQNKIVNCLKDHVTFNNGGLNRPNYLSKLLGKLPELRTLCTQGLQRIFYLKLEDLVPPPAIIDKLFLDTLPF

Molecule: O=C(O)C1=C(C(=O)Nc2ccc(-c3ccccc3OCc3ccccc3)cc2F)CCC1 [compound 1]
IC50 (µM): 4

====

- Study Target: Nurr1 LBD - NRIP (Homo sapiens, UniProt P43354)
- Sequence (P43354 364-598): as above
Measured Endpoint: IC50 (µM)

Smiles Representation: O=C(O)C1=C(C(=O)Nc2ccc(-c3ccccc3OCc3ccccc3)cc2F)CCC1
Measured Endpoint: IC50
Units: µM
Observed Result: 7
